target.or.system: ATM (Homo sapiens, UniProt Q13315)
pIC50: −log10 of the molar value.
property: pIC50

Query: Which measured pIC50 value corresponds to C[C@@H]1COCCN1c1cc(CNC(=O)c2ccc(C(=O)N3CCN(C(=O)c4cc(Cc5n[nH]c(=O)c6ccccc56)ccc4F)CC3)cc2)nc(-c2ccnc3[nH]ccc23)n1 ?
Result: < 5.30

* * *

Observed pIC50 for UniProtKB Q13535, reported per entry below.
Sequence (Q13535 whole entry): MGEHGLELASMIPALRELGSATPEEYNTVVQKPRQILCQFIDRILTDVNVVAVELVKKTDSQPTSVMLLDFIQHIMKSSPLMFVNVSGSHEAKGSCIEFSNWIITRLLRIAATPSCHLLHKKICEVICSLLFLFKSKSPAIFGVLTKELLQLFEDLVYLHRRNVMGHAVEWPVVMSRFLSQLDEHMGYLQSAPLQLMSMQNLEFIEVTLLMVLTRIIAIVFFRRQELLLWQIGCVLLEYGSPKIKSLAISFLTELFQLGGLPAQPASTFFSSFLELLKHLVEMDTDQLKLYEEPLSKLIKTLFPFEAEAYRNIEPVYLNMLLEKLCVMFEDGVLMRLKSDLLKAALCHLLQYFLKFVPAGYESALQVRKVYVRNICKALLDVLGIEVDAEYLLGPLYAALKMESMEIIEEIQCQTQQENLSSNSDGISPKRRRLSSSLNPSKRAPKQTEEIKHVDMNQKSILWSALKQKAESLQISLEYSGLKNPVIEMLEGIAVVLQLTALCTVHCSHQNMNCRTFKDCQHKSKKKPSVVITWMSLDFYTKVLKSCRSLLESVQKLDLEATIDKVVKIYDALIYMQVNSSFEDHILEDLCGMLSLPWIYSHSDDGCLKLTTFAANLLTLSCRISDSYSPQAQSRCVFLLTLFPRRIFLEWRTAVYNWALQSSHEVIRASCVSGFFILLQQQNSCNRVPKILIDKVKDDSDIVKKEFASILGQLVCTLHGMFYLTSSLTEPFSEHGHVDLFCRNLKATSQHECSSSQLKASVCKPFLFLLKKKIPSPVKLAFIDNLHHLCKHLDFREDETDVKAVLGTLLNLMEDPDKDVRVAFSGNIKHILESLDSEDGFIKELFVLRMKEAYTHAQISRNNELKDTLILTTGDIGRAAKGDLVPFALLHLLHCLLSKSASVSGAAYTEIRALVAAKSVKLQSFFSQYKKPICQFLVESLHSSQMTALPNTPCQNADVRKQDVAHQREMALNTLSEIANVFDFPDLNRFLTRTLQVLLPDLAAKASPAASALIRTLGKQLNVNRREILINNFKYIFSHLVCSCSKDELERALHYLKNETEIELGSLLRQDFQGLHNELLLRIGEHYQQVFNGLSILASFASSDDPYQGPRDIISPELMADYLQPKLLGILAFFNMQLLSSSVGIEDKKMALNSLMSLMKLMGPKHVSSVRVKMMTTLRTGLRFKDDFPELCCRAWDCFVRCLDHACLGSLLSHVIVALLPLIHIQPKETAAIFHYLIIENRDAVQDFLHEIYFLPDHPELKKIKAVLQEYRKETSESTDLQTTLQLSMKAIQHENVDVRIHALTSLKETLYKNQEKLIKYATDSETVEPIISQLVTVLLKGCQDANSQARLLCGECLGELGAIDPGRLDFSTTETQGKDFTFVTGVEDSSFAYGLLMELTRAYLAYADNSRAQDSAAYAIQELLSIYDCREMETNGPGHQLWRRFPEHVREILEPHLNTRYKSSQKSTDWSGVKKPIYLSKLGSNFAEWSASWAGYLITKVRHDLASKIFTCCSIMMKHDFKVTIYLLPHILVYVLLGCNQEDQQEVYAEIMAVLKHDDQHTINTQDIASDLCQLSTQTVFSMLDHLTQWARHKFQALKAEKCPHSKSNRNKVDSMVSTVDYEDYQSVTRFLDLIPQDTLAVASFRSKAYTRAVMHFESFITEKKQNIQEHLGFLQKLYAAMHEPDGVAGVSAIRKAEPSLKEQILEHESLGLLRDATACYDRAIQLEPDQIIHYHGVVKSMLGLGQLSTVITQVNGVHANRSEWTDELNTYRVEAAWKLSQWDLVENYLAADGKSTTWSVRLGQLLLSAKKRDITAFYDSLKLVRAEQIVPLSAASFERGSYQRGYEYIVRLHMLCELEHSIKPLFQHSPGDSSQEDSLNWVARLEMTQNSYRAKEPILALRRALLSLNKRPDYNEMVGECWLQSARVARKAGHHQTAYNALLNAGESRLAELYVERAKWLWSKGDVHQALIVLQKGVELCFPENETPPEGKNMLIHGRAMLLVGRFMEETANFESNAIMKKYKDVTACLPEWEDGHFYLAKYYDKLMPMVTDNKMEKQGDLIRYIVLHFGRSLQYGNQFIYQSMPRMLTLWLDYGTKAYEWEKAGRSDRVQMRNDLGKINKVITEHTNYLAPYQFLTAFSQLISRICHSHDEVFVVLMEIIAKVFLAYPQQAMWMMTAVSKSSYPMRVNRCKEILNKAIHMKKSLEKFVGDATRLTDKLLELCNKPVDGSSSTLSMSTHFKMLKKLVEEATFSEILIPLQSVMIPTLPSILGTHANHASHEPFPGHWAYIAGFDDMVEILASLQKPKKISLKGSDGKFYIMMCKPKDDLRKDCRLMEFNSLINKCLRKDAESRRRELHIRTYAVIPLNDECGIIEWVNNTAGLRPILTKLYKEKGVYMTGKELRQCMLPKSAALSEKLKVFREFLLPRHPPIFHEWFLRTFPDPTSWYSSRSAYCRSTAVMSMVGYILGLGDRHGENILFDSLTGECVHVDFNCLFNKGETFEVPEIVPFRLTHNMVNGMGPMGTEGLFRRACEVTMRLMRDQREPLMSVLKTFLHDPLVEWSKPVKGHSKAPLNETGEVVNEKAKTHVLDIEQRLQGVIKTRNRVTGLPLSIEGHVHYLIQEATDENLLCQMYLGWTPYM
Sequence (Q8WXE1 whole entry partner): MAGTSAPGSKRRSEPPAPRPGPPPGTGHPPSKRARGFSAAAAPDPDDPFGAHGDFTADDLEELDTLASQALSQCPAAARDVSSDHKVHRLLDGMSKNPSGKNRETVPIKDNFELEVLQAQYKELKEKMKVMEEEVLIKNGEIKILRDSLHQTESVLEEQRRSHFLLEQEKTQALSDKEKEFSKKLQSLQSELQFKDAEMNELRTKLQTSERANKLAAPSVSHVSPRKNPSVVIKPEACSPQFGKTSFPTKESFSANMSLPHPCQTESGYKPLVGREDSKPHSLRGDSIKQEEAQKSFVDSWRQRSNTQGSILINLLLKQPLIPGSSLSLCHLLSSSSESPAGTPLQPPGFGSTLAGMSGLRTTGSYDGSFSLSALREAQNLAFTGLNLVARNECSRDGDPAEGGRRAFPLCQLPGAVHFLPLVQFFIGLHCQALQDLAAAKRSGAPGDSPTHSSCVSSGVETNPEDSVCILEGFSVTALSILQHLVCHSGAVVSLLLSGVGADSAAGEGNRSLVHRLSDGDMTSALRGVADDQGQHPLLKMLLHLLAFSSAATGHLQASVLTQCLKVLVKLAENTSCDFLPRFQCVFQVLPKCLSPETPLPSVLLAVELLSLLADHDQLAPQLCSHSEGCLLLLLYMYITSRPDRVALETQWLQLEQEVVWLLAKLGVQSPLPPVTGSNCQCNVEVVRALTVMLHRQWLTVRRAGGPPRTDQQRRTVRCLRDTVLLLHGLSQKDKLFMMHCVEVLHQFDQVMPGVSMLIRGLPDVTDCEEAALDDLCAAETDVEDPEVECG
Scale: pIC50 equals -log10([C]), with [C] in mol/L.

[
  {
    "structure.notation": "C[C@@H]1COCCN1c1cc(C2(NC(=O)c3cnc(N4CCN(C(=O)c5cc(Cc6n[nH]c(=O)c7ccccc67)ccc5F)CC4)nc3)CC2)nc(-c2ccnc3[nH]ccc23)n1",
    "target.or.system": "UniProtKB Q13535",
    "value.reported": 6.98
  },
  {
    "structure.notation": "C[C@@H]1COCCN1c1cc(CNC(=O)CNC(=O)c2cc(Cc3n[nH]c(=O)c4ccccc34)ccc2F)nc(-c2ccnc3[nH]ccc23)n1",
    "target.or.system": "UniProtKB Q13535",
    "value.reported": 6.77
  },
  {
    "structure.notation": "C[C@@H]1COCCN1c1cc(CNS(=O)(=O)c2ccc(C(=O)N3CCN(C(=O)c4cc(Cc5n[nH]c(=O)c6ccccc56)ccc4F)CC3)cc2)nc(-c2ccnc3[nH]ccc23)n1",
    "target.or.system": "UniProtKB Q13535",
    "value.reported": 6.69
  },
  {
    "structure.notation": "C[C@@H]1COCCN1c1cc(C2(NC(=O)c3ccc(CN4CCN(C(=O)c5cc(Cc6n[nH]c(=O)c7ccccc67)ccc5F)CC4)cc3)CC2)nc(-c2ccnc3[nH]ccc23)n1",
    "target.or.system": "UniProtKB Q13535",
    "value.reported": 6.73
  },
  {
    "structure.notation": "C[C@@H]1COCCN1c1cc(CNC(=O)c2ccc(C(=O)N3CCN(C(=O)c4cc(Cc5n[nH]c(=O)c6ccccc56)ccc4F)CC3)nc2)nc(-c2ccnc3[nH]ccc23)n1",
    "target.or.system": "UniProtKB Q13535",
    "value.reported": 7.72
  },
  {
    "structure.notation": "C[C@@H]1COCCN1c1cc(CNC(=O)c2cc(Cc3n[nH]c(=O)c4ccccc34)ccc2F)nc(-c2ccnc3[nH]ccc23)n1",
    "target.or.system": "UniProtKB Q13535",
    "value.reported": 7.40
  }
]

Next compound, pIC50 to be filled in.
Query: Give pIC50 (UniProtKB Q13535) of the following compound: C[C@@H]1COCCN1c1cc(CNC(=O)c2ccc(CN3CCN(C(=O)c4cc(Cc5n[nH]c(=O)c6ccccc56)ccc4F)CC3)cc2)nc(-c2ccnc3[nH]ccc23)n1
Result: 7.43
